- Procedure text: Cytotoxicity in MT-4 T-cells, 5-day treatment
- Particulars: human, MT-4 cells
Test readout: CC50 at 5 days

# return recorded CC50 at 5 days for entry O=C(N[C@H](CO)[C@H](O)c1ccc([N+](=O)[O-])cc1)C(Cl)Cl [Chloramphenicol]
> 89 µM

Please report the measured CC50 at 5 days for CCOc1nc(N)nc2c1ncn2[C@@H]1O[C@@H]2COP(=O)(OC(C)C)O[C@H]2[C@@]1(C)F (stereo partly drawn) [PSI-938]
> 100 µM

Let me know recorded CC50 at 5 days for COc1ccc(C[C@H](N)C(=O)N[C@H]2[C@@H](O)[C@H](n3cnc4c(N(C)C)ncnc43)O[C@@H]2CO)cc1 [Puromycin] , thanks.
0.16 µM

Note CC50 at 5 days for the molecule shown: [N-]=[N+]=N[C@]1(CO)O[C@@H](n2ccc(N)nc2=O)[C@H](O)[C@@H]1O [4′-AzidoC, 4′-azido cytidine]
> 100 µM

Provide only the value of recorded CC50 at 5 days for C[C@@]1(O)[C@H](O)[C@@H](CO)O[C@H]1n1ccc(N)nc1=O [2′CMeC, 2′-C-methyl (2′CMe) cytidine]
19 µM

Input C[C@@]1(F)[C@H](O)[C@@H](CO)O[C@H]1n1ccc(N)nc1=O [PSI-6130] , output reported CC50 at 5 days.
> 100 µM
